Source of measurements: paper PMC10817917

- Tested on: HEK-293T cells
- METHOD SUMMARY: Resazurin cell viability assay (cytotoxicity)
- Format: cell-based, human
- CONDITION PARAMETERS: Homo sapiens, HEK-293T, 72 h, PMB 0.125 μg/mL, read-out: IC50
pIC50: −log10 of the molar value.
ATTRIBUTE MEASURED: pIC50

                                   compound  value_measured
0  CCCCCCCCCCCCO[C@H]1O[C@H](C)C[C@H](O)[C@H]1O            4.19
1  CCCCCCCCCCCC[C@H]1O[C@H](C)C[C@H](O)[C@H]1O            4.10
